Attribution: patent US12565501B2

test_target: UniProt P11229
assay_name: In vitro functional assay of muscarinic acetylcholine receptor activity (aequorin calcium flux, reversal of EC80 acetylcholine response)
Type: cell-based
condition_label: CHO-K1 cells stably expressing human M1 receptor with aequorin; acetylcholine at EC80; calcium flux (luminescence); read-out: M1 IC50
pIC50: −log10 of the molar value.
Quick list: pIC50 per entry.

Example entries and their recorded answers appear below.
INSERT INTO assay_data (compound, measure, result_value) VALUES
  ('Cn1ccc(=O)c(C2(OCC(=O)N3CC4CCC(C3)N4c3ccc(C#N)cn3)CC2)c1 [Example 302]', 'pIC50', '< 6.00'),
  ('COc1cnc2cccc(C(C)NCCC(=O)N3C[C@H]4CC[C@@H](C3)N4c3ccc(C#N)cn3)c2c1 (mixture of isomers) [Example 50]', 'pIC50', '> 8.00'),
  ('CC(c1ccc(F)cc1)[S+]([O-])CCC(=O)N1CC2CCC(C1)N2c1ccc(C#N)cn1 (racemic) [Example 170]', 'pIC50', '< 6.00');

Could you now look at the following compound, please?
(Q) Given the compound N#Cc1ccc(N2[C@@H]3C[C@H]2CN(C(=O)COC2(c4ccc(F)c(F)c4)CC2)C3)nc1 [Example 284] , what is its reported pIC50?
(A) 5.00 to 6.00

###

test_target: human M1 receptor (Homo sapiens)
Sequence (P11229 1-460): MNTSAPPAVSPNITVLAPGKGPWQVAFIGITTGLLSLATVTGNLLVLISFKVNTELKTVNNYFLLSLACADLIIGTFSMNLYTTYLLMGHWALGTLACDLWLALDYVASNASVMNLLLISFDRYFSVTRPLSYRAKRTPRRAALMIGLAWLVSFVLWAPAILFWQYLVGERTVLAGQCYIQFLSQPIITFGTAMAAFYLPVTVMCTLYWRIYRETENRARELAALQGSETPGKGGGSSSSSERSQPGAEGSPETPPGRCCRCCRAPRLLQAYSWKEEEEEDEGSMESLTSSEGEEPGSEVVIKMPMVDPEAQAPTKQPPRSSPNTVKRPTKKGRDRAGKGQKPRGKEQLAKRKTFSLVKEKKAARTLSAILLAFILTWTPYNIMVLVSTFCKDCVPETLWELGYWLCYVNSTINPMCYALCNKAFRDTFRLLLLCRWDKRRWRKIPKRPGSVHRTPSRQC
assay_name: In vitro functional assay of muscarinic acetylcholine receptor activity (aequorin calcium flux, reversal of EC80 acetylcholine response)
Format: cell-based
condition_label: CHO-K1 cells stably expressing human M1 receptor with aequorin; acetylcholine at EC80; calcium flux (luminescence); read-out: M1 IC50
pIC50: −log10 of the molar value.
Quick list: pIC50 per entry.

Example entries and their recorded answers appear below.
INSERT INTO assay_data (compound, test_target, result_value) VALUES
  ('N#Cc1ccc(N2[C@@H]3CC[C@H]2CN(C(=O)CCNC2(c4cccc(F)c4)CC2)C3)nc1 [Example 4]', 'human M1 receptor (Homo sapiens)', '7.00 to 8.00'),
  ('N#Cc1ccc(N2[C@@H]3CC[C@H]2CN(C(=O)CCNC2(c4ccccc4)CC2)C3)nc1 [Example 2]', 'human M1 receptor (Homo sapiens)', '6.00 to 7.00'),
  ('COc1cc([C@@H](C)NCCC(=O)N2C[C@H]3CC[C@@H](C2)N3c2ccc(C#N)cn2)ccn1 [Example 21]', 'human M1 receptor (Homo sapiens)', '6.00 to 7.00'),
  ('COc1ccc(C2(NCC(=O)N3CC4CCC(C3)N4c3ccc(C#N)cn3)CC2)cc1F [Example 108]', 'human M1 receptor (Homo sapiens)', '6.00 to 7.00'),
  ('N#Cc1ccc(N2[C@@H]3CC[C@H]2CN(C(=O)CCNC2(c4cc(F)cc(F)c4)CC2)C3)nc1 [Example 33]', 'human M1 receptor (Homo sapiens)', '7.00 to 8.00');

(Q) Given the compound N#Cc1ccc(N2C3CCC2CN(C(=O)COC2(c4cccc(C#N)c4F)CC2)C3)nc1 [Example 290] , what is its reported pIC50?
(A) 5.00 to 6.00

(Q) Entry N#Cc1ccc(N2C3CCC2CN(C(=O)COC(c2cccc4ncccc24)C(F)F)C3)nc1 (racemic) [Example 199] please
(A) > 8.00

(Q) Entry COc1ccnc(C2(OCC(=O)N3CC4CCC(C3)N4c3ccc(C#N)cn3)CCC2)n1 [Example 264] please
(A) > 8.00

###

test_target: human M1 receptor (Homo sapiens, UniProt P11229)
assay_name: In vitro functional assay of muscarinic acetylcholine receptor activity (aequorin calcium flux, reversal of EC80 acetylcholine response)
Type: cell-based
condition_label: CHO-K1 cells stably expressing human M1 receptor with aequorin; acetylcholine at EC80; calcium flux (luminescence); read-out: M1 IC50
Quick list: IC50 per entry.

Example entries and their recorded answers appear below.
INSERT INTO assay_data (compound, measure, result_value) VALUES
  ('N#Cc1ccc(N2[C@@H]3CC[C@H]2CN(C(=O)/C=C/C(F)(F)c2cccc4nccnc24)C3)nc1', 'IC50', '< 10 nM'),
  ('N#Cc1ccc(N2C3CCC2CN(C(=O)CCNC2(c4ccc(F)c(F)c4)CC2)C3)nc1', 'IC50', '< 10 nM'),
  ('N#Cc1ccc(N2C3CCC2CN(C(=O)COCC(F)(F)c2cccc4ncccc24)C3)nc1', 'IC50', '< 10 nM'),
  ('COc1cc(C(C)NCC(=O)N2CC3CCC(C2)N3c2ccc(C#N)cn2)ccc1F (racemic)', 'IC50', '< 10 nM');

(Q) Given the compound N#Cc1ccc(N2C3CCC2CN(C(=O)CNC2(c4cccc(F)c4)CC2)C3)nc1 , what is its reported IC50?
(A) 10 to 100 nM

(Q) Entry N#Cc1ccc(N2[C@@H]3CC[C@H]2CN(C(=O)CCNC2(c4ccc(F)c(Br)c4)CC2)C3)nc1 please
(A) < 10 nM

(Q) Entry N#Cc1ccc(N2[C@@H]3CC[C@H]2CN(C(=O)CCNC2(c4ccc(F)cc4)CC2)C3)nc1 please
(A) 10 to 100 nM

(Q) Entry N#Cc1ccc(N2C3CCC2CN(C(=O)COC2(c4cccc(OC(F)(F)F)c4)CCC2)C3)nc1 please
(A) 100 to 1000 nM

(Q) Entry N#Cc1ccc(N2[C@@H]3CC[C@H]2CN(C(=O)CCNC2(c4cccc(F)c4F)CC2)C3)nc1 please
(A) 10 to 100 nM

(Q) Entry N#Cc1ccc(N2C3CCC2CN(C(=O)CCC(F)(F)c2cccc4ncccc24)C3)nc1 please
(A) < 10 nM

(Q) Entry COc1cccnc1C(F)(F)CCC(=O)N1CC2CCC(C1)N2c1ccc(C#N)cn1 please
(A) < 10 nM

(Q) Entry N#Cc1ccc(N2C3CCC2CN(C(=O)COC2(c4ccc(F)c(F)c4)CCOC2)C3)nc1 (racemic) please
(A) 100 to 1000 nM

###

test_target: human M1 receptor (Homo sapiens, UniProt P11229)
assay_name: In vitro functional assay of muscarinic acetylcholine receptor activity (aequorin calcium flux, reversal of EC80 acetylcholine response)
Type: cell-based
condition_label: CHO-K1 cells stably expressing human M1 receptor with aequorin; acetylcholine at EC80; calcium flux (luminescence); read-out: M1 IC50
Method: CHO-K1 cells stably expressing human M1 receptor with aequorin (Perkin Elmer) were grown in F12 media (Gibco) containing 10% FBS (ATCC), 0.4 mg/mL geneticin (Sigma-Aldrich) and 0.25 mg/mL Zeocin (Invitrogen). Cells were grown as per the manufacturer's protocol. […] Compounds and cells were incubated at room temperature for 30 min in the dark. Acetylcholine at the EC80 concentration was added and calcium flux measured using a FlexStation 3 (Molecular Devices). […]
pIC50: −log10 of the molar value.
measure: pIC50

Example entries and their recorded answers appear below.
INSERT INTO measurements (compound, result_value) VALUES
  ('COc1c(F)cccc1C(C)NCC(=O)N1CC2CCC(C1)N2c1ccc(C#N)cn1 (racemic)', '> 8.00'),
  ('N#Cc1ccc(N2C3CCC2CN(C(=O)COC2(c4cccnc4)CCC2)C3)nc1', '6.00 to 7.00');

(Q) Given the compound COc1ccc(F)c([C@H](C)NCC(=O)N2CC3CCC(C2)N3c2ccc(C#N)cn2)c1 , what is its reported pIC50?
(A) > 8.00

(Q) Entry COc1cc(C2(OCC(=O)N3CC4CCC(C3)N4c3ccc(C#N)cn3)COC2)ccn1 please
(A) 5.00 to 6.00

(Q) Entry N#Cc1ccc(C2(OCC(=O)N3CC4CCC(C3)N4c3ccc(C#N)cn3)CC2)cc1 please
(A) 5.00 to 6.00

(Q) Entry COc1ccc(C2(OCC(=O)N3CC4CCC(C3)N4c3ccc(C#N)cn3)CC2)cc1OC please
(A) 6.00 to 7.00

(Q) Entry COc1cc(C2(NCC(=O)N3CC4CCC(C3)N4c3ccc(C#N)cn3)CC2)c(F)cc1F please
(A) > 8.00

###

Quick list: IC50 per entry.
test_target: human M1 receptor (Homo sapiens)
Sequence (P11229 1-460): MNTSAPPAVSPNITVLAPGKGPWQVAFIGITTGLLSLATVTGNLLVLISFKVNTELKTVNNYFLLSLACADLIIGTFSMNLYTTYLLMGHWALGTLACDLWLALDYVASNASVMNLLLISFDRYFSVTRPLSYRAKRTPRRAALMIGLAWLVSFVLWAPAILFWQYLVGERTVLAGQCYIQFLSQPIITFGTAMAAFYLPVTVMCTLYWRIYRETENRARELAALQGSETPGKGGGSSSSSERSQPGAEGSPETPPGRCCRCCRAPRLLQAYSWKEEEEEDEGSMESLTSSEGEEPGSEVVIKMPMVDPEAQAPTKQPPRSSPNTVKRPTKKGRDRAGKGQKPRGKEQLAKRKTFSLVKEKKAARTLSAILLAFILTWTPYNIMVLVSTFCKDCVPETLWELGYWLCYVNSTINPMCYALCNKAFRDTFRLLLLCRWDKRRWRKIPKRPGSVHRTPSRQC
assay_name: In vitro functional assay of muscarinic acetylcholine receptor activity (aequorin calcium flux, reversal of EC80 acetylcholine response)
Assay type: cell-based
condition_label: CHO-K1 cells stably expressing human M1 receptor with aequorin; acetylcholine at EC80; calcium flux (luminescence); read-out: M1 IC50

INSERT INTO measurements (molecule, test_target, measure, result_value) VALUES
  ('COc1cc(C2(CCC(=O)N3CC4CCC(C3)N4c3ccc(C#N)cn3)CCC2)ccn1', 'human M1 receptor (Homo sapiens)', 'IC50', '< 10 nM'),
  ('COc1cc(C2(OCC(=O)N3CC4CCC(C3)N4c3ccc(C#N)cn3)CCC2)cnn1', 'human M1 receptor (Homo sapiens)', 'IC50', '10 to 100 nM'),
  ('COc1ccc(C2(OCC(=O)N3CC4CCC(C3)N4c3ccc(C#N)cn3)CC2)cc1F', 'human M1 receptor (Homo sapiens)', 'IC50', '1000 to 10000 nM'),
  ('COc1cccc(C2(NCC(=O)N3CC4CCC(C3)N4c3ccc(C#N)cn3)CCC2)c1', 'human M1 receptor (Homo sapiens)', 'IC50', '< 10 nM'),
  ('Cc1csc(C2(OCC(=O)N3CC4CCC(C3)N4c3ccc(C#N)cn3)CCC2)n1', 'human M1 receptor (Homo sapiens)', 'IC50', '100 to 1000 nM');

(Q) Given the molecule COc1cc(C2(/C=C/C(=O)N3CC4CCC(C3)N4c3ccc(C#N)cn3)CCC2)ccn1 , what is its reported IC50?
(A) < 10 nM

(Q) Entry CC(c1ccccc1Br)S(=O)(=O)CCC(=O)N1CC2CCC(C1)N2c1ccc(C#N)cn1 (racemic) please
(A) 1000 to 10000 nM

(Q) Entry N#Cc1ccc(N2C3CCC2CN(C(=O)CCNC(CO)c2ccc(F)cc2)C3)nc1 (stereo not drawn) [Example 131] please
(A) 1000 to 10000 nM

(Q) Entry COc1ccc(C#N)c(C2(OCC(=O)N3CC4CCC(C3)N4c3ccc(C#N)cn3)CC2)c1 please
(A) < 10 nM
